# target system: Neurogenic locus notch homolog protein 3 (Homo sapiens)
# test summary: NOTCH3 binders on small-molecule microarray, primary screen, biochemical, 635/667 nm fluorescence (AID 1096)
# details: NOTCH3 binding, 635 nm fluorescence, higher = more signal
quantity: composite z-score
Please give the numeric answer without any surrounding text.

Record excerpt, results attached:
molecule	test result
COCCOC(=O)N1C(=O)[C@@]2(c3cc(C#CCC(C(=O)OC)C(=O)OC)ccc31)[C@H](c1ccccc1OCCO)N1[C@H](c3ccccc3)[C@H](c3ccccc3)OC(=O)[C@H]1[C@@H]2C(=O)NC[C@H](O)c1ccccc1	1.05
O=C1O[C@@H](c2ccccc2)[C@@H](c2ccccc2)N2[C@@H](c3ccccc3OCCO)[C@]3(C(=O)Nc4ccc(C#CC5=CCCCC5)cc43)[C@@H](C(=O)N3CCCCCCC3)[C@H]12	1.02
O=C1N[C@@H](Cc2ccccc2)C(=O)N2[C@@H]1C[C@@H](C(=O)O)[C@H]2c1cccc(OCCO)c1	0.611
COc1ccc(CCNC(=O)[C@@H]2c3ccccc3C(=O)N(Cc3ccccc3Cl)[C@H]2c2ccc(CO)cc2)cc1	0.124
C=CCNC(=O)[C@@H]1[C@H]2C(=O)O[C@H](c3ccccc3)[C@H](c3ccccc3)N2[C@H](c2ccccc2OCCO)[C@@]12C(=O)N(C(=O)OCCOC)c1ccccc12	0.884
CC(C)c1ccc(NN2C(C(O)c3ccc(B(O)O)cc3)C=CC3C(=O)N(c4ccccc4)C(=O)C32)cc1 (configuration not stated)	1.11

For the next question, use this molecule.
Q: // fetch composite z-score given entry "Cc1ccc([C@@H]2C[C@@H](Sc3ccccc3)[C@H](C(=O)O)CN2S(=O)(=O)c2ccc(C)cc2)cc1"
Result: 1.08
